System Under Test: VMAT-2 (Homo sapiens)
Construct: Novascreen Biosciences Corporation (contract assay provider) protocol Cat. No. 100-0751
Sequence (Q05940 whole entry, species assumed): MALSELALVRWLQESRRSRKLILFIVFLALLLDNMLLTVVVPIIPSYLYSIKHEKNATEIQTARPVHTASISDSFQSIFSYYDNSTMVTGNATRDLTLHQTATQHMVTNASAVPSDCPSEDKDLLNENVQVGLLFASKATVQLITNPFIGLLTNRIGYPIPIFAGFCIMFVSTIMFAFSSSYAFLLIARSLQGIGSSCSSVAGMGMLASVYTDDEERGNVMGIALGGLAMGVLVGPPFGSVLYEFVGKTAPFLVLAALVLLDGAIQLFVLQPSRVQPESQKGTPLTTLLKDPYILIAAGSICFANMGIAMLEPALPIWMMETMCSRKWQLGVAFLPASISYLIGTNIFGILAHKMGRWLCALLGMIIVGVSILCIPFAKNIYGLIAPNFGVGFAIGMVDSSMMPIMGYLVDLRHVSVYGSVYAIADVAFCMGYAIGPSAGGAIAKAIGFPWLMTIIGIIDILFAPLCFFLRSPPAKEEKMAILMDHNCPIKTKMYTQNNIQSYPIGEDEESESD
Assay Info: VMAT-2 binding affinity measurement (Novascreen protocol Cat. No. 100-0751)
Applied Conditions: Novascreen Biosciences protocol Cat. No. 100-0751
Reported Ki values follow for various compounds
# output: numeric value plus its unit

These recorded examples may help you get a feel for the data.
COc1cc2c(cc1OC)[C@H]1C[C@@H](O)[C@H](CC(C)(C)CC[19F])CN1CC2 [Compound 32] :: 0.45 nM
COc1cc2c(cc1OC)[C@H]1C[C@H](O)[C@H](CC(C)(C)CC[19F])CN1CC2 [Compound 2-epi-32] :: 2.6 nM

query: Could you please provide reported Ki for COc1cc2c(cc1OC)[C@H]1C[C@@H](O)[C@H](CCCC[19F])CN1CC2 [Compound 31] ? Thanks!
result: 6.4 nM
